SYSTEM TESTED: Human recombinant PDE2A (hPDE2A) (Homo sapiens, UniProt O00408)
Construct: His tag (inferred from metal chelate purification); made in house; host or cells: Sf9 insect cells (baculovirus)
Sequence (O00408 whole entry): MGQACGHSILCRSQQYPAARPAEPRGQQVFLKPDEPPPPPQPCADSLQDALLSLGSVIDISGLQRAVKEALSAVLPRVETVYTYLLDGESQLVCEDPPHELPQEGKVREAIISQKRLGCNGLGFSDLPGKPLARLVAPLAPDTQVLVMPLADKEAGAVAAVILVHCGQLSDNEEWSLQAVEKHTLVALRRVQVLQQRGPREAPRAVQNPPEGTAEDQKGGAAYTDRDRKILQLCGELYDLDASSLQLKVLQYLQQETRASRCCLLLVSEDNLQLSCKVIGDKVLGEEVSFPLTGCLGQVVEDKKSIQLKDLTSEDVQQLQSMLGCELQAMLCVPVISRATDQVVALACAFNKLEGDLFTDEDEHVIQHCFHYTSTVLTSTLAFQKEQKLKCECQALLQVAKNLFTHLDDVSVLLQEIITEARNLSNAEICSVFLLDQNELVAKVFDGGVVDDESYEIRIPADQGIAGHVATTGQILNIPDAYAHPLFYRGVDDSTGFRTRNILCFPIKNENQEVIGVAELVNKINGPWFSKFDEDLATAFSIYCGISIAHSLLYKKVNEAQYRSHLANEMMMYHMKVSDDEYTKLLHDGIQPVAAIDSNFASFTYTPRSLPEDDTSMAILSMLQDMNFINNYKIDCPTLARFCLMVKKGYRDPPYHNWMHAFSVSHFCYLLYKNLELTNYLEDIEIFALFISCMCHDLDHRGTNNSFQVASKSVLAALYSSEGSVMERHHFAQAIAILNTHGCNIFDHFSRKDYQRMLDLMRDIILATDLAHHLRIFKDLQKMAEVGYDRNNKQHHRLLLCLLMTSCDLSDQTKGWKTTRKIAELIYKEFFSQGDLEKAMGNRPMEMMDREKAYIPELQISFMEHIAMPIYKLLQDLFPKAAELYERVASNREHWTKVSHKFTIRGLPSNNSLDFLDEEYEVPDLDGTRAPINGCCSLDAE
METHOD DESCRIPTION: In vitro assay PDE2A (SPA, 3H-cGMP hydrolysis)
Type: biochemical
TEST CONDITIONS: read-out: hPDE2A pIC50 (converted)
READOUT KIND: IC50 (nM)
Express the result in nM but write the number alone.

Here are 10 compounds together with their reported answers.
C[C@@H]1CCN(C(=O)c2ccc3nccn3c2)C[C@H]1c1cc(C(F)F)nc2ncnn12 : 0.355
Cc1cc([C@@H]2CN(C(=O)c3cccc4nc(C)oc34)CC[C@H]2C)n2ncnc2n1 : 10.5
C[C@@H]1CCN(C(=O)c2ccc(Cl)c(Cl)c2)C[C@H]1c1cc(C(F)F)nc2ncnn12 : 0.977
Cc1cc([C@@H]2CN(C(=O)c3cc(C)sc3C)CC[C@H]2C)n2ncnc2n1 : 6.17
CCCC[C@H]1CCN(C(=O)c2cc(C)nc(C)c2)C[C@@H]1c1cc(C(F)F)nc2ncnn12 (single isomer, unassigned) : 15.1
C[C@@H]1CCN(C(=O)c2ccc3ncsc3c2)C[C@H]1c1cc(C(F)F)nc2ncnn12 : 0.224
Cc1cc(C)cc(C(=O)N2CCC[C@](C)(c3cc(C(F)F)nc4ncnn34)C2)c1 (single isomer, unassigned) : 1660
COc1cc(C(=O)N2CC[C@@H](C)[C@H](c3cc(C(F)F)nc4ncnn34)C2)ccc1F : 4.47
C[C@@H]1CCN(C(=O)c2nccnc2N)C[C@H]1c1cc(C(F)F)nc2ncnn12 : 363
C[C@@H]1CCN(C(=O)c2cnc(CF)cn2)C[C@H]1c1cc(C(F)F)nc2ncnn12 : 269

// `C[C@@H]1CCN(C(=O)c2ccno2)C[C@H]1c1cc(C(F)F)nc2ncnn12` : IC50 value = 132

Input `O=C(c1ccc2ccccc2c1)N1[C@H]2CC[C@H](c3cc(C(F)F)nc4ncnn34)[C@@H]1CC2` . Output IC50: 1.12

IC50 recorded for this compound, `C[C@@H]1CCN(C(=O)c2ccc(O)c(C#N)c2)C[C@H]1c1cc(C(F)F)nc2ncnn12` , is 1.35

The value of IC50 measured for the compound `C[C@@H]1CCN(C(=O)c2ncccc2N)C[C@H]1c1cc(C(F)F)nc2ncnn12` turned out to be 575

Sample `C[C@@H]1CCN(C(=O)c2cccc(C(F)(F)F)c2F)C[C@H]1c1cc(C(F)F)nc2ncnn12` ; IC50 observed: 38.9

// IC50 lookup, compound = `CC(C)(C)c1ccc(C(=O)N2[C@H]3CC[C@H](c4cc(C(F)F)nc5ncnn45)[C@@H]2CC3)o1` , result: 33.9

Measured IC50 of `Cc1nn(C)cc1C(=O)N1CC[C@@H](C)[C@H](c2cc(C(F)F)nc3ncnn23)C1` : 5.62

For reference, reported IC50 for `C[C@@H]1CCN(C(=O)c2ccc(F)cn2)C[C@H]1c1cc(C(F)F)nc2ncnn12` stands at 282

====

As shown below, each of these molecules has a reported Emax value.
SYSTEM TESTED: Human recombinant PDE10A (hPDE10A) (Homo sapiens, UniProt Q9Y233)
Construct: His tag (inferred from metal chelate purification); made in house; host or cells: Sf9 insect cells (baculovirus)
Sequence (Q9Y233 267-1055): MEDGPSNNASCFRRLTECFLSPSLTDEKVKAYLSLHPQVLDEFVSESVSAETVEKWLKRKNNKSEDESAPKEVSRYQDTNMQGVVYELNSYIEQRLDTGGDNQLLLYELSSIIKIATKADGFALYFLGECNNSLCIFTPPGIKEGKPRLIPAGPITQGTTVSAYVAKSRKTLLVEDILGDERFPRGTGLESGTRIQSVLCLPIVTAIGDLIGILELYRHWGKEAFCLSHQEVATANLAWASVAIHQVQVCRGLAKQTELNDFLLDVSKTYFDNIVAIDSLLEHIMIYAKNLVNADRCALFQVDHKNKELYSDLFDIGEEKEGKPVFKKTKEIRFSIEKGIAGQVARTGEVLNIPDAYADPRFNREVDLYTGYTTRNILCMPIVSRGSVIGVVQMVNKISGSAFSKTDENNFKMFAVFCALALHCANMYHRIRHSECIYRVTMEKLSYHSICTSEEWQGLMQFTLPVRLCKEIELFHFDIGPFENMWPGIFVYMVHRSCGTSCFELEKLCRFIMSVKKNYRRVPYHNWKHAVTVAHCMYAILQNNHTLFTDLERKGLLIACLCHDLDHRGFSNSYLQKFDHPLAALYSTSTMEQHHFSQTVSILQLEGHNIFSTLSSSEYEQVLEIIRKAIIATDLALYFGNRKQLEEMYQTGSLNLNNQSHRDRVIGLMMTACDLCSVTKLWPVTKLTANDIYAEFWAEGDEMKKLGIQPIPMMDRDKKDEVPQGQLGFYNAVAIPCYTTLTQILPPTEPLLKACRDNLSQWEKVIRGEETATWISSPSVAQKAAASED
METHOD DESCRIPTION: In vitro assay PDE10A, human clone (SPA, 3H-cAMP hydrolysis)
Type: biochemical
TEST CONDITIONS: human clone by default (no (r) mark); read-out: hPDE10A2 or rPDE10A2 Emax
Provide a numeric answer, followed by its unit.

Here's what some known entries look like.
Cc1cc2ccc(C(=O)N3CC[C@@H](C)[C@H](c4cc(C(F)F)nc5ncnn45)C3)cn2c1 [Compound 289] : 99%
C[C@@H]1CCN(C(=O)c2ccc3ccccc3c2)C[C@H]1c1cc(C(F)F)nc2ncnn12 [Compound 331] : 100%
Cc1ncc(C(=O)N2CC[C@@H](C)[C@H](c3cc(C(F)F)nc4ncnn34)C2)cn1 [Compound 244] : 54%
C[C@@H]1CCN(C(=O)c2ccc(C#N)cn2)C[C@H]1c1cc(C(F)F)nc2ncnn12 [Compound 234] : 59%
C[C@@H]1CCN(C(=O)c2cnc3c(F)cccc3c2)C[C@H]1c1cc(C(F)F)nc2ncnn12 [Compound 325] : 98%

Field Emax (entry O=C(c1ccc(Cl)s1)N1[C@H]2CC[C@H](c3cc(C(F)F)nc4ncnn34)[C@@H]1CC2 [Compound 351] ) reads 83%

Emax in this record for C[C@@H]1CCN(C(=O)c2cc(C3CC3)ncc2F)C[C@H]1c1cc(C(F)F)nc2ncnn12 [Compound 269] : 93%
